TARGET_SYSTEM: human CTLA-4 (human) (UniProt P16410)
Sequence (P16410 36-223): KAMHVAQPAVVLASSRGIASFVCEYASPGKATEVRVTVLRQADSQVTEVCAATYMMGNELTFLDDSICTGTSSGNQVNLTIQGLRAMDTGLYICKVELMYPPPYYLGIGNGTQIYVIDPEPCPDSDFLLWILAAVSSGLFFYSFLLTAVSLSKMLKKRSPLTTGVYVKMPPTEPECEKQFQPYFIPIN
EXPERIMENT_DESCRIPTION: flow cytometry, transfected Expi293F cells
MEASURED_PROPERTY: parental ratio

CD80 C16S/H18L/R29D/Y31L/Q33H/K36G/M38I/T41A/M43R/M47T/E81V/L85R/K89N/A91T/F92P/K93V/R94L/T110A/I118V/H188D ECD-Fc (Fc fusion) VIHVTKEVKEVATLSSGLNVSVEELAQTDILWHKEGKIVLAMRSGDTNIWPEYKNRTIFDITNNLSIVILALRPSDEGTYVCVVRKYENDTPVLEHLAEVTLSVKADFPAPSISDFEVPTSNIRRIICSTSGGFPEPHLSWLENGEELNAINTTVSQDPETELYAVSSKLDFNMTTNHSFMCLIKYGDLRVNQTFNWNTTKQEHFPDN ... 0.01
CD80 R29D/Y31L/Q33H/K36G/M38I/T41A/M43R/M47T/E81V/L85R/K89N/A91T/F92P/K93V/R94L/I118V/T120S/T130A/K169E/M174T ECD-Fc (Fc fusion) VIHVTKEVKEVATLSCGHNVSVEELAQTDILWHKEGKIVLAMRSGDTNIWPEYKNRTIFDITNNLSIVILALRPSDEGTYVCVVRKYENDTPVLEHLAEVTLSVKADFPTPSISDFEVPSSNIRRIICSASGGFPEPHLSWLENGEELNAINTTVSQDPETELYAVSSELDFNTTTNHSFMCLIKYGHLRVNQTFNWNTTKQEHFPDN ... 0.01

Turning now to a further binder:
Consider the binder CD80 R29D/Y31L/Q33H/K36G/M38I/T41A/M43R/M47T/L70Q/E81V/K89N/A91T/F92P/K93V/R94L/I118V/T120S/I127T/T130A ECD-Fc (Fc fusion) VIHVTKEVKEVATLSCGHNVSVEELAQTDILWHKEGKIVLAMRSGDTNIWPEYKNRTIFDITNNLSIVIQALRPSDEGTYVCVVLKYENDTPVLEHLAEVTLSVKADFPTPSISDFEVPSSNIRRITCSASGGFPEPHLSWLENGEELNAINTTVSQDPETELYAVSSKLDFNMTTNHSFMCLIKYGHLRVNQTFNWNTTKQEHFPDN and give its recorded parental ratio. 0.01
